- Study Target: human GLP-1R receptor (Homo sapiens)
- Experimental Protocol: GLP-1R low expression cell assay (cAMP TR-FRET, CHO-K1_hGLP-1Rlow_clone10 cells)
- Experimental Parameters: cAMP TR-FRET, 30 min at 25° C.
Observation Type: EC50

Worked examples, 5 compounds total:
{"Compound": "CC(F)(F)c1cc(C(=O)O)cc2c1nc(CN1CCC(c3cccc4c3O[C@@](C)(c3ccc(Cl)cn3)O4)CC1)n2C[C@@H]1CCO1 [Compound 57]", "Study Target": "human GLP-1R receptor (Homo sapiens)", "EC50": "< 10 nM"}
{"Compound": "CCOc1cc(C(=O)O)cc2c1nc(Cc1ccc(-c3cccc(OCc4ccc(C#N)cc4F)n3)cc1F)n2C", "Study Target": "human GLP-1R receptor (Homo sapiens)", "EC50": "< 10 nM"}
{"Compound": "COc1cc(C(=O)O)cc2c1nc(N(C)[C@H]1CC[C@@H](c3cccc4c3O[C@@](C)(c3ccc(Cl)cn3)O4)CC1)n2C[C@@H]1CCO1", "Study Target": "human GLP-1R receptor (Homo sapiens)", "EC50": "100 to 1000 nM"}
{"Compound": "Cn1c(CN2CCC(c3cccc(OCc4ccc(C#N)cc4F)n3)CC2)nc2c3c(c(C(=O)O)cc21)OCCO3", "Study Target": "human GLP-1R receptor (Homo sapiens)", "EC50": "100 to 1000 nM"}
{"Compound": "Cn1c(N[C@H]2CC[C@H](c3cccc(OCc4ccc(Cl)cc4F)n3)CC2)nc2c(OC(F)F)cc(C(=O)O)cc21", "Study Target": "human GLP-1R receptor (Homo sapiens)", "EC50": "> 1000 nM"}

--- query ---
Give its EC50 value. Item: `Cn1c(CN2CCC(c3cccc(OCc4ccc(Cl)c5ccoc45)n3)CC2)nc2c(OC(F)F)cc(C(=O)O)cc21`
< 10 nM

* * *

- Study Target: human GLP-1R receptor (Homo sapiens, UniProt P43220)
- Construct: expressed in transfected cells
- Sequence (P43220 24-463): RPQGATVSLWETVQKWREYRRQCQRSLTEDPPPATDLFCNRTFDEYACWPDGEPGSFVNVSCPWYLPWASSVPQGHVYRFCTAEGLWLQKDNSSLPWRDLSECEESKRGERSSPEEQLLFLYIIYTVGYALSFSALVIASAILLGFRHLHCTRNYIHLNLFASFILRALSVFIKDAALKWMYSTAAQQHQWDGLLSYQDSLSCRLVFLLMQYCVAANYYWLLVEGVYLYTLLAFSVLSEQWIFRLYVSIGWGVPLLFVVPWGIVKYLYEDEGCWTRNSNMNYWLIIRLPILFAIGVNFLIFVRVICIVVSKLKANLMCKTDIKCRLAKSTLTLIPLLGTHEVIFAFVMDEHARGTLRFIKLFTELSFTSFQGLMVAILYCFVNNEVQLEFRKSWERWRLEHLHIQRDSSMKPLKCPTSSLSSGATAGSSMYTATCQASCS
- Experimental Protocol: GLP-1R low expression cell assay (cAMP TR-FRET, CHO-K1_hGLP-1Rlow_clone10 cells)
- Format: cell-based
- Experimental Parameters: maximum activation relative to control GLP-1 peptide agonist
Observation Type: Emax

{"Molecule": "COc1cc(C(=O)O)cc2c1nc(CN1CCC(c3cccc4c3O[C@H](c3ccc(Cl)cc3F)CO4)CC1)n2C [Compound 267]", "Study Target": "human GLP-1R receptor (Homo sapiens, UniProt P43220)", "Emax": "> 85%"}
{"Molecule": "Cn1c(CN2CCC(c3cccc(OCc4ccc(C#N)cc4F)n3)CC2)nc2c(OC(F)(F)F)cc(C(=O)O)cc21 [Compound 125]", "Study Target": "human GLP-1R receptor (Homo sapiens, UniProt P43220)", "Emax": "> 85%"}
{"Molecule": "Cn1c(CN2CCC(c3cccc(OCc4ccc(Cl)cc4F)n3)CC2)nc2c(O)c(C(=O)O)ccc21 [Compound 345]", "Study Target": "human GLP-1R receptor (Homo sapiens, UniProt P43220)", "Emax": "50 to 85%"}

Returns the measured Emax for the input molecule. Input: C[C@@H](c1nc2c(OC(F)F)cc(C(=O)O)cc2n1C)N1CCC(c2cccc(OCc3ccc(C#N)cc3F)n2)CC1 [Compound 119]
50 to 85%

Report Emax for Cn1c(CN2CCC(c3cccc(OCc4ccc(C5CCCO5)cc4F)n3)CC2)nc2c(OC(F)F)cc(C(=O)O)cc21 (centres unmarked) [Compound 177] please.
50 to 85%

Name the recorded Emax for C[C@]1(c2ccc(Cl)cn2)Oc2cccc(C3CCN(Cc4nc5c(OC(F)F)cc(C(=O)O)cc5n4C[C@@H]4CCO4)CC3)c2O1 [Compound 78] .
> 85%

Query (molecule): N#Cc1ccc(COc2cccc(C3CCN(Cc4nc5cc(C(=O)O)c6c(c5n4C[C@@H]4CCO4)OCCO6)CC3)n2)c(F)c1 [Compound 101] ; field requested: Emax
> 85%

Value lookup for Emax; key = COCCOc1cc(C(=O)O)cc2[nH]c(CN3CCC(c4cccc5c4O[C@@](C)(c4ccc(Cl)cn4)O5)CC3)nc12 [Compound 74]
> 85%

Any idea what Emax was measured for CC(CO)Oc1cc(C(=O)O)cc2c1nc(CN1CCC(c3cccc(OCc4ccc(Cl)cc4F)n3)CC1)n2C (centres unmarked) [Compound 320] ?
> 85%

Can you share its Emax? I mean this molecule: COc1cc(C(=O)O)cc2c1nc(N(C)[C@H]1CC[C@@H](c3cccc4c3O[C@@](C)(c3ccc(Cl)cn3)O4)CC1)n2C[C@@H]1CCO1 [Compound 79]
> 85%

Entry Cn1c(CN2CCC(c3cccc(OCc4ccc(Cl)cc4F)n3)CC2)nc2c(OC(F)F)cc(C(=O)O)nc21 [Compound 328] has what Emax?
> 85%

I would be grateful if you could share the reported Emax for Cn1c(CN2CCC(c3cccc(OCc4ccc(C#N)cc4F)n3)CC2)nc2c(N)cc(C(=O)O)cc21 [Compound 115] .
> 85%

Quick one: Emax for COCC(F)(F)Oc1cc(C(=O)O)cc2c1nc(CN1CCC(c3cccc(OCc4ccc(Cl)cc4F)n3)CC1)n2C [Compound 227] ?
> 85%

// lookup Emax for COc1cc(C(=O)O)cc2c1nc(CN1CCC(c3cccc4c3OC[C@@H](c3ccc(C#N)cc3F)O4)CC1)n2C [Compound 278]
> 85%

* * *

- Experimental Protocol: Metabolic stability in rat hepatocytes
- Format: in vitro ADME
- Experimental Parameters: cryopreserved hepatocytes, 1 μM, 1×10^6 cells/mL, 0-240 min
Observation Type: CLint scaled at 1 μM (mL/min/kg)

[P] COc1cc(C(=O)O)cc2c1nc(CN1CCC(c3cccc(OCc4ccc(C#N)cc4F)n3)CC1)n2Cc1cncs1
[Q] COc1cc(C(=O)O)cc2c1nc(CN1CCC(c3cccc(OCc4ccc(C#N)cc4F)n3)CC1)n2C[C@@H]1CCO1
Pick one: P or Q . Which one has the lower reported CLint scaled at 1 μM? API: response body contains the label of the selected item.
Q
(Q: 27.4 mL/min/kg, P: 68.7 mL/min/kg)

* * *

- Study Target: human GLP-1R receptor (Homo sapiens, UniProt P43220)
- Experimental Protocol: GLP-1R low expression cell assay (cAMP TR-FRET, CHO-K1_hGLP-1Rlow_clone10 cells)
- Experimental Parameters: cAMP TR-FRET, 30 min at 25° C.
pEC50: −log10 of the molar value.
Observation Type: pEC50

Check out these entries, answers already filled in.
{"Compound": "COc1c(Cl)ccc(COc2cccc(C3CCN(Cc4nc5c(OC(F)F)cc(C(=O)O)cc5n4C)CC3)n2)c1F", "Reported Measurement": "6.00 to 7.00"}
{"Compound": "COc1cc(C(=O)O)cc2c1nc(Cc1cc(F)c(-c3cccc(OCc4ccc(C#N)cc4F)n3)cc1F)n2C", "Reported Measurement": "> 8.00"}
{"Compound": "O=C(O)c1cc(OCF)c2c(c1)nc(CN1CCC(c3cccc(OCc4ccc(Cl)cc4F)n3)CC1)n2CF", "Reported Measurement": "< 6.00"}

I'd like to know its pEC50. The compound in question is `Cn1c(CN2CCC(c3cccc(OCc4ccc(Cl)cc4F)n3)CC2)nc2c(NCCF)cc(C(=O)O)cc21`
6.00 to 7.00

Looking for the measured pEC50 of `Cn1c(CN2CCC(c3ncc(F)c(OCc4ccc(Cl)cc4F)n3)CC2)nc2c(OC(F)F)cc(C(=O)O)cc21` , can you help?
7.00 to 8.00

Dear colleague, I am looking for the recorded pEC50 of the following compound: `O=C(O)c1cc(OC(F)F)c2c(c1)nc(CN1CCC(c3cccc(OCc4ccc(Cl)cc4F)n3)CC1)n2CF`
< 6.00

* * *

- Study Target: human GLP-1R receptor (Homo sapiens, UniProt P43220)
- Experimental Protocol: GLP-1R low expression cell assay (cAMP TR-FRET, CHO-K1_hGLP-1Rlow_clone10 cells)
- Experimental Parameters: cAMP TR-FRET, 30 min at 25° C.
Observation Type: EC50

In the examples that follow, each entry is paired with its recorded EC50.
{"Compound": "CCOc1cc(-c2nc(=O)o[nH]2)cc2c1nc(CN1CCC(c3cccc(OCc4ccc(C#N)cc4F)n3)CC1)n2C", "EC50": "10 to 100 nM"}
{"Compound": "Cn1c(CN2CCC(c3cccc(OCc4ccc(Cl)cn4)n3)CC2)nc2c(OC(F)F)cc(C(=O)O)cc21", "EC50": "100 to 1000 nM"}
{"Compound": "Cn1c(CN2CCC(c3cccc(OCc4ccc(C#N)cc4F)n3)CC2)nc2c(OC(F)F)cc(C(=O)O)cc21", "EC50": "< 10 nM"}
{"Compound": "Cn1c(CN2CCC(c3nccc(OCc4ccc(C#N)cc4F)n3)CC2)nc2c(OC(F)F)cc(C(=O)O)cc21", "EC50": "100 to 1000 nM"}
{"Compound": "COc1cc(C(=O)O)cc2c1nc(CN1CCC(c3cccc(OCc4ccc(C#N)cc4F)n3)CC1)n2C", "EC50": "< 10 nM"}
{"Compound": "Cn1c(CN2CCC(c3cccc(OCc4ccccc4Cl)n3)CC2)nc2c(OC(F)F)cc(C(=O)O)cc21", "EC50": "100 to 1000 nM"}

I have this compound here, `[2H]C([2H])(C)Oc1cc(C(=O)O)cc2c1nc(CN1CCC(c3cccc(OC([2H])([2H])c4ccc(C#N)cc4F)n3)CC1)n2C` , and I need its recorded EC50.
< 10 nM

Param item = `Cn1c(CN2CCC(c3cccc(OCc4ccc(Cl)cc4F)n3)CC2)nc2c(O[C@H]3C[C@H](F)C3)cc(C(=O)O)cc21` ; retrieve measured EC50.
10 to 100 nM

Entry `CC(C)Oc1cc(C(=O)O)cc2c1nc(CN1CCC(c3cccc(OCc4ccc(C#N)cc4F)n3)CC1)n2Cc1cncs1` : reported EC50 = ?
< 10 nM

Could you share which EC50 value was measured for `COc1cc(C(=O)O)cc2c1nc(CN1CCC(c3cccc(OCc4ccc(C#N)c5c4OCC5)n3)CC1)n2C` ?
< 10 nM
